All figures here come from ChEMBL document CHEMBL1201862.

Entries and their GI50 values follow.
# System: COLO 205
# experiment-notes: NCI tumour cell line growth inhibition, 48 h
The source made the active and inactive calls. Rule as the data show it: active = GI50 up to about 1.1 µM and inactive = higher.

compound: COC1(OC)N=C(N)C2(C#N)C3(C(=O)N(C(C)C)N=C3C)C12C#N (stereo not given)
target-or-test-system: COLO 205
GI50: > 100 µM (inactive)
//
compound: O=C(Nc1nc(C23CC4CC(CC(C4)C2)C3)cs1)c1cc2cc(Br)cc(Br)c2oc1=O
target-or-test-system: COLO 205
GI50: > 100 µM (inactive)
//
compound: O=C(O)c1ccccc1CC1Cc2ccccc2C1
target-or-test-system: COLO 205
GI50: > 100 µM (inactive)
//
compound: Cc1ccc2nc(CC(=O)c3ccc4ccccc4c3)c(O)nc2c1
target-or-test-system: COLO 205
GI50: > 100 µM (inactive)
//
compound: CC(C)(C)c1cc(OCc2nn3c(Cc4ccccc4)nnc3s2)c(Cl)cc1OCc1nn2c(Cc3ccccc3)nnc2s1
target-or-test-system: COLO 205
GI50: 24.7 µM (inactive)

---

Each entry below lists one item and its recorded GI50 value.
# System: NCI-H23
# experiment-notes: NCI tumour cell line growth inhibition, 48 h
Calls of active or inactive are those of the source. No stated cut-off is given here; in the data, active = GI50 up to about 1.1 µM and inactive = higher. Where a SMILES comes first, the peptide text is derived from it. [ ]: non-standard residue; d: D form. The star is where a group is joined. ξ: configuration not given here. ξPhe(4-NO2) = NC(Cc1ccc([N+](=O)[O-])cc1)C(=O)O; Boc = CC(C)(C)OC(=O)*; OBn = c1ccc(CO*)cc1
readout: GI50

compound: CC(C)(C)OC(=O)NC(Cc1ccc([N+](=O)[O-])cc1)C(=O)NCC(=O)OCc1ccccc1 (stereo unspecified) (Boc-[ξPhe(4-NO2)]-Gly-OBn)
observed-value: 20.2 µM (inactive)
//
compound: O=C(O)CCc1nn2c(nc1=O)sc1ccc3ccccc3c12
observed-value: > 100 µM (inactive)
//
compound: COc1cc2ccc3c4ccccc4cnc3c2cc1OC
observed-value: > 100 µM (inactive)
//
compound: O=C(CN(Cc1ccccc1)Cc1ccccc1)N1CCc2c([nH]c3ccccc23)C1c1cccnc1 (stereo unspecified)
observed-value: 5.41 µM (inactive)
//
compound: CC(C)(C)C1=Cc2cc3cc(C(C)(C)C)[nH]c(=O)c3cc2S(=O)(=O)N1
observed-value: 29.9 µM (inactive)
//
compound: N#Cc1c(N)nc(Sc2ccccc2N)c(C#N)c1-c1ccc(Cl)cc1
observed-value: 21.4 µM (inactive)

---

Measured GI50 accompanies every entry in the list below.
# System: M14
# experiment-notes: NCI tumour cell line growth inhibition, 48 h
Active and inactive are the calls of the source. No stated cut-off is given here; in the data, active = GI50 up to about 1.1 µM and inactive = higher.

compound: O=C(O)c1ccccc1CC1Cc2ccccc2C1
GI50: > 100 µM (inactive)
//
compound: CC1=C(C(=O)NCc2ccccc2)C(c2ccc([N+](=O)[O-])cc2)C(C(=O)NCc2ccccc2)=C(C)N1
GI50: 21.8 µM (inactive)
//
compound: COc1ccc2nc(N/N=C/C(C)=N/Nc3cc(C)c4cc(OC)ccc4n3)cc(C)c2c1
GI50: 39.1 µM (inactive)
//
compound: O=c1n(-c2ccc(Cl)c(Cl)c2)c(=O)n(-c2ccc(Cl)c(Cl)c2)c(=O)n1-c1ccc(Cl)c(Cl)c1
GI50: 3.2 µM (inactive)
//
compound: O=C1CC[N+]2=Cc3ccccc3O[B-]2(c2ccccc2)O1 (stereo unspecified)
GI50: > 100 µM (inactive)
//
compound: CC(C)(CO)N1CCN(C(S)=Nc2ccccc2)CC1
GI50: > 100 µM (inactive)
//
compound: c1ccc2c(c1)Cn1c-2nc2ccccc21
GI50: > 100 µM (inactive)
//
compound: COc1cccc2[s+]snc12
GI50: > 100 µM (inactive)
//
compound: O=C1c2ccccc2C(=O)c2c1ccc1c2OCO1
GI50: > 100 µM (inactive)
//
compound: COC1(OC)N=C(N)C2(C#N)C3(C(=O)N(C(C)C)N=C3C)C12C#N (stereo unspecified)
GI50: > 100 µM (inactive)
//
compound: CSc1nc2c(c(N(C)C)n1)C(O)n1c(nc3ccccc31)S2 (stereo unspecified)
GI50: > 65.3 µM (inactive)
